systemUnderTest: T1, recombinant human TIGIT (human, UniProt Q495A1 22-141, limits assumed)
T1 construct: also called T cell immunoreceptor with Ig and ITIM domains
T1 sequence (looked up): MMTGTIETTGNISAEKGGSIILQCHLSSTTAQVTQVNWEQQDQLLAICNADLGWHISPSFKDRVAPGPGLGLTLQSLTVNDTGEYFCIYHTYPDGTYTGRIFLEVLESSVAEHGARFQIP
assayText: SPR (Carterra), average

| binder | koff / s⁻¹ |
| --- | --- |
| TIGIT-SC135 (Fc fusion, VHH-Fc) VHH: EVQLVESGGGLVQPGGSLRLSCAASGFAFGDSWMGWFRQAPGKEREWVASVLRGGTLRAYAVSVKGRFTISADNSKNAAYLQMNSLKPEDTAVYYCARASIVGTTTLVWGQGTLVTVSS | 0.21 |
| TIGIT-SC138 (Fc fusion, VHH-Fc) VHH: EVQLVESGGGLVQPGGSLRLSCAASGFTLENNMMGWFRQAPGKGREFVAAISRSGTLKAYADSVKGRFTISADNSKNTAYLQMNSLKPEDTAVYYCARVRYYYDSSGYFFWFDLWGQGTLVTVSS | 0.363 |
